Reference source for all entries: patent US20220298217A1

# assay_target: T1, PTHR1 on CHO-K1/Ga15/PTHR1 cells (UniProt Q03431 27-593, limits assumed)
# T1 sequence (looked up): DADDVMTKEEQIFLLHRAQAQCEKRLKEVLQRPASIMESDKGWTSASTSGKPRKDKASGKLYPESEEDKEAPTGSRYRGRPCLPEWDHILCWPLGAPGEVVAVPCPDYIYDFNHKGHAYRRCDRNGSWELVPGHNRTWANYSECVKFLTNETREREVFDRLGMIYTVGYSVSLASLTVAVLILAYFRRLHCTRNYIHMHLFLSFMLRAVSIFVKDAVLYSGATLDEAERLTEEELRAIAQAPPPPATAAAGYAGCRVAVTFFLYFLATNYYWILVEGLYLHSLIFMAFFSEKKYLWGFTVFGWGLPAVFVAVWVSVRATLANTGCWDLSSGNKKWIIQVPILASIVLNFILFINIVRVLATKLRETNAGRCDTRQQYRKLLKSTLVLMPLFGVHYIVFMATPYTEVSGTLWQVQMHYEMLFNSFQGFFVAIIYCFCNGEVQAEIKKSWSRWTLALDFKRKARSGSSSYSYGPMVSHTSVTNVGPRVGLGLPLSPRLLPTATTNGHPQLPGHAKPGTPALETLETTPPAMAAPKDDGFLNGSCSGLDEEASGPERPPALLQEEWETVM
# measurement_protocol: cell-based or functional assay
measurement_type: cAMP accumulation (HTRF): Emax (%)
Give your result in % as a bare value.

INPUT: Look up cAMP accumulation (HTRF): Emax for this binder: AVAEIQLMHQRAKWLEELKLKDDLRKILEDVY [R2-30]
OUTPUT: 97.2

INPUT: Look up cAMP accumulation (HTRF): Emax for this binder: GVYAIQAMHDLAKIRAEYELREMLLRLLEEIF [R2-10]
OUTPUT: 1680

INPUT: Look up cAMP accumulation (HTRF): Emax for this binder: GVSMLQIMHDLAVIRAEYELREMLLRLLEEIF [R2-4]
OUTPUT: 10.6

INPUT: Look up cAMP accumulation (HTRF): Emax for this binder: GIAVITIMIDYAKLRAEYELREMLLRLLEEIF [R2-22]
OUTPUT: 17.6

INPUT: Look up cAMP accumulation (HTRF): Emax for this binder: AVAEIQLMHQRAKWDLLIELVKLLHELLKEYI [R2-40]
OUTPUT: 95.1

INPUT: Look up cAMP accumulation (HTRF): Emax for this binder: AVAEIQLMHQRAKWELEFELFREFLKLLVDFF [I3 (R1-97)]
OUTPUT: 99.3

INPUT: Look up cAMP accumulation (HTRF): Emax for this binder: AVAEIQLMHQRAKWGLELELKEKLRKILEDVY [R2-26]
OUTPUT: 96.8

INPUT: Look up cAMP accumulation (HTRF): Emax for this binder: AVAEIQLMHQRAKWELEYELFEMFLKLLEEIF [I1 (R1-100)]
OUTPUT: 99.9

INPUT: Look up cAMP accumulation (HTRF): Emax for this binder: GLAALTIGLLRAKLRAEYELREMLLRLLEEIF [R2-24]
OUTPUT: 81.4

INPUT: Look up cAMP accumulation (HTRF): Emax for this binder: VDFEIQLMQQRAQWIADYRIREFLDKLIAEIF [R1-94]
OUTPUT: 90.8

INPUT: Look up cAMP accumulation (HTRF): Emax for this binder: GVVMLQFMHDVAKIRAEYELREMLLRLLEEIF [R2-9]
OUTPUT: 665

INPUT: Look up cAMP accumulation (HTRF): Emax for this binder: AVAEIQLMHQRAKWKILEELLKILIDLLKQYI [R2-48]
OUTPUT: 98.8
